Target: Adenosine receptor A3 (Homo sapiens, UniProt P0DMS8)
Assay: Antagonist activity at recombinant human adenosine A3 receptor expressed in CHO cells assessed as reduction in Cl-IB-MECA-induced inhibition of forskolin-stimulated [3H]cAMP accumulation preincubated for 10 mins followed by Cl-IB-MECA addition measured after 30 mins by liquid scintillation counting method
pIC50: −log10 of the molar value.
READOUT_KIND: pIC50

CCCOc1cc(NC(C)=O)nc(S[C@@H](C)c2ccccc2)n1 ... 6.37
CC[C@H](C)Oc1cc(NC(C)=O)nc(SCc2ccccc2)n1 ... 6.82
CCCSc1nc(NC(C)=O)cc(O[C@@H](C)c2ccccc2)n1 ... 8.10

###

Target: Adenosine receptor A3 (Homo sapiens)
Sequence (P0DMS8 whole entry): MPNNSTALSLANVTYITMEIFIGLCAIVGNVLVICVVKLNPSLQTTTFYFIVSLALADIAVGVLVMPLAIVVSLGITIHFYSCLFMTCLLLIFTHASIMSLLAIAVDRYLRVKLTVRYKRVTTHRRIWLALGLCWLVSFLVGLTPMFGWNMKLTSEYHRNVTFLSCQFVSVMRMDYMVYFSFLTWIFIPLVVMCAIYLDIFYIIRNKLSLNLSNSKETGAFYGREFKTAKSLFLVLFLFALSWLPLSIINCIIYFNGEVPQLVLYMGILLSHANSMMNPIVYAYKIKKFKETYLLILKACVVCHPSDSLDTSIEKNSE
Experiment: Displacement of [3H]NECA from recombinant human adenosine A3 receptor expressed in CHO cell membranes measured after 180 mins
Categories are assigned from the measured Ki using these intervals: low value = under 2 nM, medium value = from 2 nM up to 600 nM, high value = 600 nM and over

CCCSc1nc(NC(C)=O)cc(O[C@H](C)c2ccccc2)n1 ... low value
CCCOc1cc(NC(C)=O)nc(SC(C)c2ccccc2)n1 (racemic) ... medium value
CCCOc1cc(NC(C)=O)nc(S[C@H](C)c2ccccc2)n1 ... high value
CC[C@@H](C)Oc1cc(NC(C)=O)nc(SCc2ccccc2)n1 ... high value
CCCSc1nc(NC(C)=O)cc(O[C@@H](C)c2ccccc2)n1 ... low value
CC[C@H](C)Oc1cc(NC(C)=O)nc(SCc2ccccc2)n1 ... medium value
CCCSc1nc(NC(C)=O)cc(OC(C)c2ccccc2)n1 (racemic) ... low value
CCCOc1cc(NC(C)=O)nc(S[C@@H](C)c2ccccc2)n1 ... medium value
CCC(C)Oc1cc(NC(C)=O)nc(SCc2ccccc2)n1 (racemic) ... medium value

###

Target: Adenosine receptor A1 (Homo sapiens)
Sequence (P30542 whole entry): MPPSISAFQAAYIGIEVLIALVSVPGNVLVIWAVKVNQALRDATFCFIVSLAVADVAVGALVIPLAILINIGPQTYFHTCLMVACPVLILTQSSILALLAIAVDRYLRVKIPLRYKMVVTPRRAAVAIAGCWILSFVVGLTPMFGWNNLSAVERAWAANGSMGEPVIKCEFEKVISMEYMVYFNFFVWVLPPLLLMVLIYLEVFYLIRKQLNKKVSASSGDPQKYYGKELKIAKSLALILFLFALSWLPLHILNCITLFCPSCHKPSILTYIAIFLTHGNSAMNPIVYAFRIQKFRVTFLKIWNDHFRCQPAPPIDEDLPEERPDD
Test: Displacement of [3H]DPCPX from human adenosine A1 receptor expressed in CHO cell membranes after 180 mins
READOUT_KIND: Ki

CCC(C)Oc1cc(NC(C)=O)nc(SCc2ccccc2)n1 (racemic) ... > 1000 nM
